Assay: in vitro
Details: African green monkey
attribute measured: CC50 (nM)
Answers are plain numbers, in nM.

### Prompt For the molecule COc1cc2c(OCC#N)c3c(c(-c4ccc5c(c4)OCO5)c2cc1OC)C(=O)OC3 [Compound C156-P1] , what CC50 is on record?
### Response 431
